# System: HL-60
# TEST: cell viability (% survival relative to DMSO control); higher = less cytotoxic
# CONDITION_PARAMETERS: 0.01 µM; 72 h; co-treatment: DMSO vehicle
MEASUREMENT_NAME: cell viability (%)
Give a bare numeral; the unit % is implied.

Use these answered entries as a reference point.
{"COMPOUND": "Cc1ccccc1C(C(=O)NC1CCCCC1)N(C(=O)Cn1ccnc1C)c1cccc(F)c1 (centres undefined) [AGI-5198]", "MEASURE_UNIT": "%", "cell viability": 106}
{"COMPOUND": "N/C(=N\\CCCC(N)C(=O)O)N[N+](=O)[O-] [L-NNA]", "MEASURE_UNIT": "%", "cell viability": 99.9}

[Q] Field request: cell viability | item: N#CC(C#N)=NNc1ccc(OC(F)(F)F)cc1 [FCCP]
[A] 94.6

[Q] Suppose we examine the compound O=C(C1CC1)N1CC[C@@H](C=C2NNC(=O)N2c2ccc(-c3ccc4occc4c3)cc2)C1 ; what cell viability value has been reported?
[A] 105

Source of measurements: the supplement of paper PMC8671470
